target: TLR7 (Homo sapiens, UniProt Q9NYK1); construct: human HEK-Blue cells co-expressing a TLR7 or TLR8 gene; experiment: In vitro human TLR7 binding reporter assay (HEK-Blue, NF-kB/AP1-inducible SEAP); format: cell-based; conditions: activity range, read-out: TLR7 Agonist EC50
Sequence (Q9NYK1 27-1049): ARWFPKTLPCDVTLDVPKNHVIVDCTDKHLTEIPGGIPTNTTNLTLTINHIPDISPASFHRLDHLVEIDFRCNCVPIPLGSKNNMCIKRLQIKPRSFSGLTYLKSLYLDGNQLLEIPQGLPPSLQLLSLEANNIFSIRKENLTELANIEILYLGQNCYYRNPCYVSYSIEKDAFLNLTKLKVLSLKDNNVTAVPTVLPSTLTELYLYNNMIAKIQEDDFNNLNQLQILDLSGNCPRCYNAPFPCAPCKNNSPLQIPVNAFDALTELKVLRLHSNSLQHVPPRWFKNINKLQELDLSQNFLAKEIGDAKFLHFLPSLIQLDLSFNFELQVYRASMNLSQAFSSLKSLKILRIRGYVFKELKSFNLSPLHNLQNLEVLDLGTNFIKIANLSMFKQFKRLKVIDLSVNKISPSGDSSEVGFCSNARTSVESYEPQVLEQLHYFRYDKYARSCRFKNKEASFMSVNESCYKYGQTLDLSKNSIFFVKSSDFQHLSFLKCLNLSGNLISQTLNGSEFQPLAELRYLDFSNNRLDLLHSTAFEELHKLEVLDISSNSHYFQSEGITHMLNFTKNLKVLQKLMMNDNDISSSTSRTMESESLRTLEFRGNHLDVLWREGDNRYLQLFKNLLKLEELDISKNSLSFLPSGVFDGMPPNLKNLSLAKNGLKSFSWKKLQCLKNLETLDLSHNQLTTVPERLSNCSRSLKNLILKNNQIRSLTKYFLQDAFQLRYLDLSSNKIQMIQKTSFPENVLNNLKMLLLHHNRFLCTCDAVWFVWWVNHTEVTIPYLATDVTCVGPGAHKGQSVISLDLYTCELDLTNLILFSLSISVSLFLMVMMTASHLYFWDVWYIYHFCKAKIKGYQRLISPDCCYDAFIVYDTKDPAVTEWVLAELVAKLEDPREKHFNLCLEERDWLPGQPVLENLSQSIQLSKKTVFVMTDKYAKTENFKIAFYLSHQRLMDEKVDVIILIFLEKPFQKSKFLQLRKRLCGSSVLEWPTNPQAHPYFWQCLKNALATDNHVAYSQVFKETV
Reported EC50 values for a set of compounds

*Q* Query (compound): "Nc1nc2cc(-c3ccn[nH]3)ccc2c2nn(CCCNS(=O)(=O)c3cccnc3)cc12" ; field requested: EC50
*A* > 100 µM

*Q* Query (compound): "Nc1nc2cc(-c3cc[nH]n3)ccc2c2nn(CCC(=O)N3CCCC3)cc12" ; field requested: EC50
*A* > 100 µM

*Q* Query (compound): "Nc1nc2cc(-c3cc[nH]n3)ccc2c2[nH]c(CNCCF)cc12" ; field requested: EC50
*A* > 100 µM

*Q* Query (compound): "CC(C)(O)Cn1ncc2c(N)nc3cc(-c4cc[nH]n4)ccc3c21" ; field requested: EC50
*A* > 100 µM

*Q* Query (compound): "Nc1nc2cc(-c3cc[nH]n3)ccc2c2nn(CCC(=O)NCc3ccccn3)cc12" ; field requested: EC50
*A* > 100 µM

* * *

system: THP-1 cells; assay: Measurement of IL-1β production, hTRF protocol (second alternative procedure), THP-1 cells; format: cell-based, human; conditions: Homo sapiens, THP-1, IL-1β production, human; read-out: NLRP3 hILIB EC50
Output: class label from EC50. Mapping: bin A (below 600 nM), bin B (600 nM to below 1000 nM), bin C (1000 nM or more)

*Q* # bin label for "Nc1nc2cc(-c3cc[nH]n3)ccc2c2nn(CCNC(=O)c3ccccc3)cc12"
*A* bin A

* * *

Molecular target: TLR8 (Homo sapiens, UniProt Q9NR97)
Construct: human HEK-Blue cells co-expressing a TLR7 or TLR8 gene
Sequence (Q9NR97 27-1041): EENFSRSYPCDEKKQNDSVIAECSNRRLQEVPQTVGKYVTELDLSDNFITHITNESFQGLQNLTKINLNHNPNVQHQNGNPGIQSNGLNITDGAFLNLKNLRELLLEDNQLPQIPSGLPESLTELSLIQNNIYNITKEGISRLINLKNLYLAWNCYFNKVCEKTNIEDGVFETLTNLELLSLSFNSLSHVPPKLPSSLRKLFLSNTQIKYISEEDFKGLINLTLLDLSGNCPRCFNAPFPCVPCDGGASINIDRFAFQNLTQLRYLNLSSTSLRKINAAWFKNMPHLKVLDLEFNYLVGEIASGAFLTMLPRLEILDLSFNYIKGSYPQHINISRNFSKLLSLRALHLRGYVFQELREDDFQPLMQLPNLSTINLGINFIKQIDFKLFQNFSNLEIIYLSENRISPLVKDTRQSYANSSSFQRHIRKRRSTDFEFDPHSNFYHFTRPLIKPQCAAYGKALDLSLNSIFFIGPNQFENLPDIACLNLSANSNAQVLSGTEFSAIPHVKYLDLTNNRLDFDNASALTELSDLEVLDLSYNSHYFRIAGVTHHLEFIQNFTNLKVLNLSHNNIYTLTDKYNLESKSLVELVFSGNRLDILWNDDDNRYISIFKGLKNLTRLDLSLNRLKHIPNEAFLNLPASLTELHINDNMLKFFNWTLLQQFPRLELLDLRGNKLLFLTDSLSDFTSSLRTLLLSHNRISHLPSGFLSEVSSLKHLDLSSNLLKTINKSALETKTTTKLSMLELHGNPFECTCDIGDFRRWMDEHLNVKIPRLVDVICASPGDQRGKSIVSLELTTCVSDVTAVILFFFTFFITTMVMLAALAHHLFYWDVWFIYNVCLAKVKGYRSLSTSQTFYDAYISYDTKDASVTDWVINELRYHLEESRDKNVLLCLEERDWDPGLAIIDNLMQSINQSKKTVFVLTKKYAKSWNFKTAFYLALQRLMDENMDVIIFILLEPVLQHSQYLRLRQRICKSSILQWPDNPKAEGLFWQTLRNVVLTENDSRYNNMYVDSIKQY
Experiment: In vitro human TLR8 binding reporter assay (HEK-Blue, NF-kB/AP1-inducible SEAP)
Assay type: cell-based
Conditions: activity range class, read-out: TLR8 Agonist EC50
Method: In Vitro Human TLR7 and TLR8 Binding Reporter Assays Logarithmically-growing human HEK-Blue cells co-expressing a TLR7 or TLR8 gene and a NF-kB/AP1-inducible SEAP (secreted embryonic alkaline phosphatase; Invivogen, San Diego, CA) reporter gene are added to individual wells of a 384-well plate (15,000 cells per 20 μL per well) and maintained for 24 h at 37° C., 5% CO2. […] All EC50 values (half-maximal effective concentration) are determined using proprietary data analysis software. […]
property-name: EC50

molecule=Nc1nc2cc(-c3cc[nH]n3)ccc2c2cn(CCCNC(=O)c3ccccc3)nc12 test_system="TLR8 (Homo sapiens, UniProt Q9NR97)" property_name=EC50 test_result="> 100 µM"

Please find the next molecule below.
*Q* Query (molecule): "Nc1nc2cc(-c3cc[nH]n3)ccc2c2cn(CCNC(=O)c3cccc(C(F)(F)F)n3)nc12" ; field requested: EC50
*A* 20 to 100 µM

* * *

test system: THP-1 cells; assay: Measurement of IL-1β production, hTRF protocol (second alternative procedure), THP-1 cells; type: cell-based, human; conditions: Homo sapiens, THP-1, IL-1β production, human; read-out: NLRP3 hILIB EC50
property-name: EC50 (nM)
Kindly provide the numeric value in nM only, without the unit symbol.

Answered cases to consult:
compound="Nc1nc2cc(-c3cc[nH]n3)ccc2c2cn(CCNC(=O)c3ccc(F)cn3)nc12 [Example 31]" test_system="THP-1 cells" property_name=EC50 test_result=150
compound="Nc1nc2cc(-c3cc[nH]n3)ccc2c2nn(CC(O)C(F)(F)F)cc12 (stereo not shown) [Example 245]" test_system="THP-1 cells" property_name=EC50 test_result=940
compound="CC(=O)N(C)CCn1cc2c(N)nc3cc(-c4ccn[nH]4)ccc3c2n1 [Example 259]" test_system="THP-1 cells" property_name=EC50 test_result=2290

*Q* Query (compound): Nc1nc2cc(-c3cc[nH]n3)ccc2c2nn(CCc3c[nH]cn3)cc12 [Example 361] ; field requested: EC50
*A* 190
